System: K-562 leukemia
protocol.summary: NCI-60 one-dose screen, 48 h (100 = growth as untreated, 0 = no growth, -100 = all killed)
details: 10 µM unless noted
About 83,000 compounds went through this panel and 20% of them were active in at least one assay; those are over-represented in the sample as a whole.
Definition: the class of an entry is the range in 1 (below 10%), 2 (10% to below 60%), 3 (60% or more) that contains its growth.

Which bin should I file COc1ccc2[nH]c(C(=O)OCc3ccc4cccc(O)c4n3)cc2c1 under?
1

Which bin should I file Cc1ccc(NC(=O)c2[nH]c(SCCN(C)C)nc2-c2ccc(F)cc2)cc1Nc1ccc2ncn(C)c(=O)c2c1 under?
2

Which bin should I file O=C(CSc1ccc(Cl)cc1)Nc1ccc(-c2nc3ccccc3s2)c(Cl)c1 under?
2

Which bin should I file CN1CCN(Cc2ccc(NC(=O)c3cnc(F)c(C#Cc4cnc(N)c5ncccc45)c3)cc2C(F)(F)F)CC1 under?
1

Which bin should I file O=C1OCC2=C1C(c1cccc(Br)c1)c1cc3c(cc1N2CCO)OCCO3 (configuration not stated) under?
2

Which bin should I file Cc1nc2ccc(Nc3nc(N4CCOCC4)nc(N4CCN(C)CC4)n3)cc2n1Cc1ccccc1 under?
2

Which bin should I file COc1ccc2[nH]c(O)c(/C=c3/ccc4c(c3)N=C(c3ccc(F)cc3)N=4)c2c1 under?
2

Which bin should I file COc1ccc(C(=O)c2cc(C)c(OC)c(C)c2)cc1OC(=O)CCl under?
1

Which bin should I file COC(=O)c1cc2oc(/C=N/NC(=O)c3cc4oc(-c5cccc(C(F)(F)F)c5)cc4[nH]3)cc2n1Cc1ccccc1 under?
3

Which bin should I file O=C(N=Nc1c(Cl)c(O)c2ccccc2c1O)C(=O)Nc1cccc(C(F)(F)F)c1 under?
2

Which bin should I file COc1ccc(Sc2[nH]c(C=O)c3ccccc23)cc1 under?
1

Which bin should I file O=C(O)C1[S][Sb]([CH](C(=O)O)[CH](C(=O)O)[Sb]2[S]C(C(=O)O)C(C(=O)O)[S]2)[S]C1C(=O)O (configuration not stated) under?
3

Which bin should I file ClCc1cccc(CSc2ncnc3c2ncn3Cc2cccc(CCl)c2)c1 under?
2

Which bin should I file CCN(CC)CCCC(C)Nc1cnc(C(=O)Nc2cc(C)cc3cccnc23)cn1 (configuration not stated) under?
2

Which bin should I file NS(=O)(=O)c1ccc(N2N=C(c3ccc(Br)cc3)CC2c2cn(-c3ccccc3)nc2-c2ccc(Cl)cc2)cc1 (configuration not stated) under?
3

Which bin should I file Cc1cc(C)c2c(n1)sc1c(Nc3ccc(OCc4ccccc4)cc3)ncnc12 under?
3

Which bin should I file CCCCN(CCCC)CCCN=c1nc2c(c(N)n1-c1ccccc1)c(=S)n(-c1ccccc1)c(=S)n2-c1ccccc1 under?
1

###

Test system: HCT-116 colon
protocol.summary: NCI-60 one-dose screen, 48 h (100 = growth as untreated, 0 = no growth, -100 = all killed)
details: 10 µM unless noted
About 83,000 compounds went through this panel and 20% of them were active in at least one assay; those are over-represented in the sample as a whole.
value.type: growth (%)
Entry rule: numbers only, all in %.

Need growth, item C#CC[C@@H]1C[C@]2(C)[C@H]3CC=C4[C@H]5[C@@H](C)[C@H](C)CC[C@]5(C(=O)NCCCCN)CC[C@@]4(C)[C@]3(C)CC[C@H]2C(C)(C)[C@H]1OC(C)=O
-56.4

Need growth, item O=C(O)Cn1ccc2ccccc21
96.9

Need growth, item COc1cc(-c2csc(NC(=O)Nc3cccc(C(F)(F)F)c3)n2)cc(OC)c1OC
46.9

Need growth, item CCN(C)CCCOc1ccc(/C(=C(\C)Cc2cccc(OC)c2)c2ccc(OC(C)=O)cc2)cc1
99.7

Need growth, item COc1cc(C)c2c(=O)c3c(oc2c1)C(=O)c1c(O)c(OC)cc(O)c1C3=O
7.58

Need growth, item C#CC[C@@H]1C[C@]2(C)[C@H]3CC[C@@H]4[C@H]5C(C(=C)C)CC[C@]5(C(=O)NCCCCCCCCN)CC[C@@]4(C)[C@]3(C)CC[C@H]2C(C)(C)[C@H]1OC(C)=O (some centres not stated)
-88.5

Need growth, item CN1CCN(Cc2ccc(NC(=O)c3cnc(F)c(C#Cc4cnc(N)c5ncccc45)c3)cc2C(F)(F)F)CC1
7.2

Need growth, item CCOP(=O)(O)OP(=O)(O)OCC
106

Need growth, item CCN(CC)C(Cl)=Nc1ccc(Cl)cc1
98.1

Need growth, item C[C@]12CCc3nc(Nc4ccc(O)cc4)sc3C1=CC[C@@H]1[C@@H]2CC[C@]2(C)/C(=N/NC(N)=S)CC[C@@H]12
-81

Need growth, item CC(C)(C)NC(=O)C(OC(=O)C1CCc2cc(F)ccc2O1)c1ccccc1Cl (configuration not stated)
93.9

Need growth, item c1ccc2c(c1)cnc1ccccc12
100

###

Test system: MDA-MB-435 melanoma
protocol.summary: NCI-60 one-dose screen, 48 h (100 = growth as untreated, 0 = no growth, -100 = all killed)
details: 10 µM unless noted
About 83,000 compounds went through this panel and 20% of them were active in at least one assay; those are over-represented in the sample as a whole.
Under this convention, 1 denotes growth strictly below 10% and 0 denotes growth at or above 10%.

Record COc1c(B(O)O)cccc1-c1nc2c(F)cc3n[nH]c(C)c3c2c2c1CCCC2 : is its growth strictly below 10%?
0

Record CCN(CC)CCCCCCCNc1cc(OC)cc2c(C)ccnc12 : is its growth strictly below 10%?
0

Record O=C1OCC2=C1C(c1cccc(Br)c1)c1cc3c(cc1N2CCO)OCCO3 (configuration not stated) : is its growth strictly below 10%?
1

Record CS(=O)(=O)Nc1cc(-c2cc3ncc(C#N)c(Nc4ccc(Oc5ccccc5)c(Cl)c4)c3s2)cnc1Cl : is its growth strictly below 10%?
0

Record O=c1c2sc3ccccc3c2nnn1-c1ccc(F)c(Cl)c1 : is its growth strictly below 10%?
0

Record O=C(Nc1ccc2[nH]c3ccccc3c2c1)c1ccccc1Cl : is its growth strictly below 10%?
1

Record COc1ccc(/C(=C\c2ccc3c(c2)OCO3)C(=O)Nc2nc3ccccc3s2)cc1 : is its growth strictly below 10%?
0

Record CCN(CC)CCCC(C)Nc1cnc(C(=O)Nc2cc(C)cc3cccnc23)cn1 (configuration not stated) : is its growth strictly below 10%?
0

Record CC(=O)c1c(C)nc(-c2cc(C)cc(Cl)c2)nc1-c1cccc(Oc2ccccc2)c1 : is its growth strictly below 10%?
1

Record O=c1[nH]c2ccccc2n2cc3cccnc3c12 : is its growth strictly below 10%?
0

Record COc1ccc(NC(=O)/C=C/c2ccc(NC(=O)N3CCCC3)cc2)cn1 : is its growth strictly below 10%?
0

Record O=C(C=P(c1ccccc1)(c1ccccc1)c1ccccc1)CCl : is its growth strictly below 10%?
1

Record C=CCn1c(C)nc2cc(Nc3nc(N4CCOCC4)nc4nc[nH]c34)ccc21 : is its growth strictly below 10%?
0

Record Cc1cc(NC(=O)C2c3ccccc3C(=O)N(CC(C)C)C2c2cccs2)no1 (configuration not stated) : is its growth strictly below 10%?
1

Record Nc1cc2nc3ccccc3oc-2cc1=O : is its growth strictly below 10%?
1

Record CC(C)COC(=O)NC(C)(C)C : is its growth strictly below 10%?
0

Record Clc1ccc(Nc2ncnc3c2sc2ncccc23)cc1 : is its growth strictly below 10%?
0

Record COc1cc(CN2CCO[C@H](COc3cccc(F)c3)C2)ccc1Cl : is its growth strictly below 10%?
0

Record O=C(Nc1cccc(Cl)c1)Nc1cc(C(F)(F)F)ccc1Cl : is its growth strictly below 10%?
1

Record CN(C)c1ccc(/C=N/Nc2nnc3n2N=C(c2ccc(Cl)cc2)CS3)cc1 : is its growth strictly below 10%?
0

Record CC1(C)C(N(O)C(=O)Nc2ccc(Cl)cc2)N(c2ccc(Cl)cc2)C(=O)N1CC(=O)N/N=C/C=C/c1ccc([N+](=O)[O-])o1 (configuration not stated) : is its growth strictly below 10%?
1

Record NC(N)=N/N=C\c1ccc(OCc2ccccc2)cc1 : is its growth strictly below 10%?
1

Record C=CCn1c(C)nc2cc(Nc3nc(N4CCCC4)nc4nc[nH]c34)ccc21 : is its growth strictly below 10%?
1

Record N#Cc1c(N)n(C2OC(CO)C(O)C2O)c2ncnc(N)c12 (configuration not stated) : is its growth strictly below 10%?
1

Record NC(=O)Nc1ccc2ncnc(Nc3cccc(O)c3)c2c1 : is its growth strictly below 10%?
0

Record O=C(OCc1ccc2c(Br)cc(Br)c(O)c2n1)c1cc2ccccc2[nH]1 : is its growth strictly below 10%?
1

Record NNC(=O)Cc1ccccc1 : is its growth strictly below 10%?
0

Record CCN(CC)CCC(CNc1ccnc2cc(Cl)ccc12)c1ccc(O)cc1 (configuration not stated) : is its growth strictly below 10%?
0

Record COc1ccc2[nH]cc(C(c3ccc(Cl)cc3)N3CCCC3)c2c1 (configuration not stated) : is its growth strictly below 10%?
0

Record O=C(Nc1ccc(Br)cc1)Nc1ccccc1Cl : is its growth strictly below 10%?
0

Record Nc1nonc1-c1nc2ccccc2n1Cc1ccc(F)cc1 : is its growth strictly below 10%?
1

Record COc1ccc(/C(=C\c2cc(OC)c(OC)c(OC)c2)C(=O)Nc2nc3ccc(Cl)cc3s2)cc1 : is its growth strictly below 10%?
0

Record CCCCN(CCCC)CCC(O)c1cc2ccc(C(F)(F)F)cc2c2cc(C(F)(F)F)ccc12 (configuration not stated) : is its growth strictly below 10%?
0

Record COc1ccc2[nH]c(O)c(/C=c3/ccc4c(c3)N=C(c3ccc(F)cc3)N=4)c2c1 : is its growth strictly below 10%?
0

Record COc1cc2nccc(Oc3ccc(NC(=O)C4(C(=O)Nc5ccc(F)cc5)CC4)cc3)c2cc1OC(=O)c1ccc(N)cc1 : is its growth strictly below 10%?
0

Record COc1ccc(-c2nnc(SCC(=O)Nc3ccc(C(=O)/C=C/c4ccc(Cl)cc4)cc3)n2-c2ccccc2)cc1 : is its growth strictly below 10%?
0

Record C=CCOc1c(Br)cc(Br)cc1Br : is its growth strictly below 10%?
0

Record NCCCOc1cc2ccccc2cc1C(=O)NCCCOc1cc2ccccc2cc1C(=O)Nc1ccc(Cl)cc1O : is its growth strictly below 10%?
1

Record CN1CCN(Cc2ccc(NC(=O)c3cncc(C#Cc4cnc5cccnn45)c3)cc2C(F)(F)F)CC1 : is its growth strictly below 10%?
1

Record CSC(=S)N/N=C(\C)c1ccccn1 : is its growth strictly below 10%?
0

Record Cc1n(Cc2ccc3ccccc3n2)cc[n+]1Cc1ccc2ccccc2n1 : is its growth strictly below 10%?
0

Record O=C(Cc1ccc(Nc2ccnc(C(F)(F)F)c2)cc1)N/N=C/c1ccccc1O : is its growth strictly below 10%?
0
